# TESTED_ON: T1, DR4G117: Human HLA-DRA1*01:02/DRB1*03:01 ECD with Collagen II peptide CII_1236-1249 (human)
# T1 construct: also called DRB1*03:01 CII_1236
# TEST_DETAILS: MSD ECL; antigen coated; protocol of Example 3;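 note: antibodies tested at 0.04–5 µg/ml on plate-coated soluble HLA-DR carrying peptide on the beta chain N-terminus, bound antibody detected by SulfoTag anti-human kappa secondary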
Entries and their ECL signal values follow.
Units required after the number.

These solved cases illustrate the format of a correct answer.
>  <BINDER>
DR4B98 (antibody, human IgG2, kappa, V domains shown, also called VH DR4H50 / VL PH9L3) VH: QVQLVQSGAEVKKPGSSVKVSCKASGGTFKSYYIHWVRQAPGQGLEWMGGIAPIYGTAYYAQKFQGRVTITADESTSTAYMELSSLRSEDTAVYYCARDASWARAYGFDYWGQGTLVTVSS VL: EIVLTQSPATLSLSPGERATLSCRASQSVSSYLAWYQQKPGQAPRLLIYDASNRATGIPARFSGSGSGTDFTLTISSLEPEDFAVYYCQQRSNWPLTFGQGTKVEIKR

>  <ECL signal>
105000 ECL

$$$$
>  <BINDER>
DR4B5 (antibody, V domains shown, also called apolizumab (1D10) re-engineered as IgG2sigma) VH: QVQLQESGPGLVKPSETLSLTCTVSGFSLTNYGVHWVRQSPGKGLEWIGVKWSGGSTEYNAAFISRLTISKDTSKNQVSLKLNSLTAADTAVYYCARNDRYAMDYWGQGTLVTVSS VL: DIQMTQSPSSLSASVGDRVTITCRASENIYSYLAWYQQKPGKAPKLLVSNAKTLAEGVPSRFSGSGSGKQFTLTISSLQPEDFATYYCQHHYGNSYPFGQGTKLEIK

>  <ECL signal>
730 ECL

$$$$

// ECL signal lookup, binder = DR4B127 (antibody, human IgG2, kappa, V domains shown, also called VH DR4H7 / VL PH9L3) VH: QVQLVQSGAEVKKPGSSVKVSCKASGGTFKSYYIHWVRQAPGQGLEWMGGIRPISGNAEYAQKFQGRVTITADESTSTAYMELSSLRSEDTAVYYCARDASYYRNYGFDYWGQGTLVTVSS VL: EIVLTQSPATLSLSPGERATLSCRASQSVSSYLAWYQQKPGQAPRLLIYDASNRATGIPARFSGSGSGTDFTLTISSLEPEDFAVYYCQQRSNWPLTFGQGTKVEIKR , result: 966000 ECL

// ECL signal lookup, binder = DR4B6 (antibody, V domains shown, also called L243 re-engineered as IgG2sigma) VH: QIQLVQSGPELKKPGETVKISCKASGFTFTNYGMNWVKQAPGKGLKWMGWINTYTREPTYADDFKGRFAFSLETSASTAYLQINNLKNEDTAKYFCARDITAVVPTGFDYWGQGTTLTVSS VL: DIQMTQSPASLSVSVGETVTITCRASENIYSNLAWYRQKQGKSPQLLVFAASNLADGVPSRFSGSGSGTQYSLKINSLQSEDFGDYYCQHFWTTPWAFGGGTNLEIK , result: 620000 ECL

// ECL signal lookup, binder = DR4B4 (antibody, V domains shown, also called Lym-1 re-engineered as IgG2sigma) VH: QVQLKESGPGLVAPSQSLSITCTISGFSLTSYGVHWVRQPPGKGLEWLVVIWSDGSTTYNSALKSRLSISKDNSKSQVFLKMNSLQTDDTAIYYCASHYGSTLAFASWGHGTLVTVSA VL: DIQMTQSPASLSASVGETVTIICRASVNIYSYLAWYQQKQGKSPQLLVYNAKILAEGVPSRFSGSGSGTQFSLKINSLQPEDFGSYYCQHHYGPFTFGSGTKLEIK , result: 737 ECL

From: patent US20180355043A1
